- test-system: PRMT6 (Homo sapiens)
- Sequence (Q96LA8 whole entry, species assumed): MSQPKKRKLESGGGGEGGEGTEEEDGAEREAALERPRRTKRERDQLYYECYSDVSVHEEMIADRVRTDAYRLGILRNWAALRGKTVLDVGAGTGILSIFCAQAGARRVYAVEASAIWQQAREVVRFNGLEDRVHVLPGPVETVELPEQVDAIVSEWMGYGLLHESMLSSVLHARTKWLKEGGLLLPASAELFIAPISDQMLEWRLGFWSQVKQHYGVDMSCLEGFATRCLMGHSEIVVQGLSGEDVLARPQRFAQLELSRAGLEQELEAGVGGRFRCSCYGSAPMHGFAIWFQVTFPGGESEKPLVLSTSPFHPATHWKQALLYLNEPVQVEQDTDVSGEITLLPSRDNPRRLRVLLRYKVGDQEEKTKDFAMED
- method-description: selectivity of YD1113/YD1290 on PRMT panel, PRMT6
- Type: biochemical
measure: IC50 (nM)
Report the figure in nM without appending any unit label.

compound: N=C(NCCCSC[C@H]1O[C@@H](n2cnc3c(NCC#Cc4ccccc4)ncnc32)[C@H](O)[C@@H]1O)Nc1cccc(Br)c1
measure: IC50
val: 25

compound: N=C(NCCCSC[C@H]1O[C@@H](n2cnc3c(NCC#Cc4ccc(O)cc4)ncnc32)C(O)[C@H]1O)Nc1cccc(Br)c1 (stereo in doubt)
measure: IC50
val: 44

Name the recorded IC50 for N=C(NCCCSC[C@H]1O[C@@H](n2cnc3c(NCc4cn(Cc5ccccc5)nn4)ncnc32)C(O)[C@H]1O)Nc1cccc(Br)c1 (stereo in doubt) .
25
